systemName: Human P2X7 (hP2X7) receptor (Homo sapiens, UniProt Q99572)
Construct: myc-His (from the pcDNA3.1/myc-HisA vector); expressed in transfected cells
Sequence (Q99572 1-595): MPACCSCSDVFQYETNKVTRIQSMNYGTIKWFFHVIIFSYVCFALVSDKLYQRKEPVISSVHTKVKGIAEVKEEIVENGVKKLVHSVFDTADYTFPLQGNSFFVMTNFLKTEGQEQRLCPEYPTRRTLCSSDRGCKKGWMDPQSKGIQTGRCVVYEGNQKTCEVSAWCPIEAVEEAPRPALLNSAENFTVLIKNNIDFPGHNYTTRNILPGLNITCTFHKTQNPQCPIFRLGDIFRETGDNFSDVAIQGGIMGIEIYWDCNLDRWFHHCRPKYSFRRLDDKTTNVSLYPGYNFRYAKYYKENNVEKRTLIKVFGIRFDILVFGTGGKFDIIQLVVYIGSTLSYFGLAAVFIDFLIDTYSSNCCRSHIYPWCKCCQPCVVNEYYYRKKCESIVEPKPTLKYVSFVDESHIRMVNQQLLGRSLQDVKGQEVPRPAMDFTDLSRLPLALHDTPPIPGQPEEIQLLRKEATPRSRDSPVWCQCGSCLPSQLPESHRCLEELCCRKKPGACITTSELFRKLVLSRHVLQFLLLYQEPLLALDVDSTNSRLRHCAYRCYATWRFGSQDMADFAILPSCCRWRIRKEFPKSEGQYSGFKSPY
procedureText: Dye assay: BzATP-induced Yo-Pro-1 uptake in HEK293 cells stably expressing hP2X7
Format: cell-based
cond: BzATP (0.1 mM)-induced Yo-Pro-1 uptake, compounds 30 min pre-treatment, 90 min incubation
IC50 under 3 nM gets 1 (yes), anything at or over 3 nM gets 0 (no).

O=C(Cn1ncc(NC23CC4CC(CC(C4)C2)C3)c(Br)c1=O)NCc1ccncc1 [compound 51] :: 0 (no)
C[C@@H]1[C@H]2C[C@@H](C[C@H]1Nc1cnn(CC(=O)NCc3ccccc3N(C)C)c(=O)c1Cl)C2(C)C [compound 247] :: 0 (no)
CC(NC(=O)Cn1ncc(N[C@@H]2C[C@@H]3C[C@H]([C@H]2C)C3(C)C)c(Cl)c1=O)c1ccncc1Cl (stereo partly shown) [compound 264] :: 1 (yes)

Identify whether the compound C[C@@H](NC(=O)Cn1ncc(NC2C3CC4CC(C3)CC2C4)c(Cl)c1=O)c1ccncc1 (stereo partly shown) [compound 368] records IC50 below 3 nM.
1 (yes)

Does the reported IC50 of CC(NC(=O)Cn1ncc(NC2C3CCCC2CCC3)c(Cl)c1=O)c1ccnnc1 (stereo not shown) [compound 376] stay below 3 nM?
1 (yes)

Is 3 nM strictly greater than the compound's reported IC50? compound: C[C@@H]1[C@H]2C[C@@H](C[C@H]1Nc1cnn(Cc3ccncc3)c(=O)c1Br)C2(C)C [Synthetic Example 394]
0 (no)

IC50 under 3 nM? Item: CSc1c(N[C@@H]2C[C@@H]3C[C@H]([C@H]2C)C3(C)C)cnn(CC(=O)NCc2ccncc2)c1=O [Synthetic Example 146]
0 (no)

###

systemName: Human P2X7 (hP2X7) receptor (Homo sapiens)
Construct: myc-His (from the pcDNA3.1/myc-HisA vector); expressed in transfected cells
Sequence (Q99572 1-595): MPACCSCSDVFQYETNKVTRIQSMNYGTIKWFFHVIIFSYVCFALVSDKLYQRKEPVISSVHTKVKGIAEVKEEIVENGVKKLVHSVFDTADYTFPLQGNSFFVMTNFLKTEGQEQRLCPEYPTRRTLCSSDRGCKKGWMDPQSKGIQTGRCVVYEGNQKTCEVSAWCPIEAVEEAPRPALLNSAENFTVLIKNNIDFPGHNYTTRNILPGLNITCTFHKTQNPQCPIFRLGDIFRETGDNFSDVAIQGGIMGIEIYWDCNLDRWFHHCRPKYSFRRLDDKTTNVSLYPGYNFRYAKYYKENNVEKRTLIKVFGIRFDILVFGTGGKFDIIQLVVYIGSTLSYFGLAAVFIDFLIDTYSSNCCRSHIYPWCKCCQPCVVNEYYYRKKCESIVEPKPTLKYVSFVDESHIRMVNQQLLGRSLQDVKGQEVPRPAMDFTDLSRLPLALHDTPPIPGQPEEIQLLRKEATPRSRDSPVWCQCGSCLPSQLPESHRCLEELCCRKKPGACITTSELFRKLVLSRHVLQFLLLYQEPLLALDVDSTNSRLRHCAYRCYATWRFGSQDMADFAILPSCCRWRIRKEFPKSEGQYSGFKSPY
procedureText: Dye assay: BzATP-induced Yo-Pro-1 uptake in HEK293 cells stably expressing hP2X7
Assay type: cell-based
cond: BzATP (0.1 mM)-induced Yo-Pro-1 uptake, compounds 30 min pre-treatment, 90 min incubation
The following ranges of IC50 define the classes used here: low (below 9 nM), middle (9 nM to below 50 nM), high (50 nM or more)

C[C@@H]1[C@H]2C[C@@H](C[C@H]1Nc1cnn(CC(=O)N[C@H](C)c3ccncc3)c(=O)c1Cl)C2(C)C :: low
Cc1noc(C)c1CNC(=O)Cn1ncc(N[C@@H]2C[C@@H]3C[C@H]([C@H]2C)C3(C)C)c(Br)c1=O :: middle
CCC(NC(=O)Cn1ncc(N[C@@H]2C[C@@H]3C[C@@H](C3(C)C)[C@]2(C)O)c(Cl)c1=O)c1ccncc1 (some centres unmarked) :: middle
COc1cnccc1CNC(=O)Cn1ncc(N[C@@H]2C[C@@H]3C[C@H]([C@H]2C)C3(C)C)c(Br)c1=O :: middle
C[C@@H]1[C@H]2C[C@@H](C[C@H]1Nc1cnn(CC(=O)NCc3ccc(O)cc3)c(=O)c1Br)C2(C)C :: high
Cc1c(N[C@@H]2C[C@@H]3C[C@H]([C@H]2C)C3(C)C)cnn(CC(=O)NCc2ccncc2)c1=O [Synthetic Example 154] :: middle
Cc1cc(NC(=O)Cn2ncc(N[C@@H]3C[C@@H]4C[C@H]([C@H]3C)C4(C)C)c(Cl)c2=O)sn1 :: high
C[C@@H]1[C@H]2C[C@@H](C[C@H]1Nc1cnn(-c3cccc(C(=O)NCC4(O)CCCCCC4)c3)c(=O)c1Br)C2(C)C [Synthetic Example 409] :: high

// return the class label for CC(NC(=O)Cn1ncc(N[C@@H]2C[C@@H]3C[C@H]([C@H]2C)C3(C)C)c(Cl)c1=O)c1ccnc(F)c1 (some centres unmarked)
low

Sort into band: CN(C)c1cnccc1CNC(=O)Cn1ncc(N[C@@H]2C[C@@H]3C[C@@H](C3(C)C)[C@]2(C)O)c(Cl)c1=O
low

Band of C[C@@H]1[C@H]2C[C@@H](C[C@H]1Nc1cnn(CC(=O)Nc3ccc(N(C)C)cc3)c(=O)c1Br)C2(C)C ?
high

Category of C[C@@H]1[C@H]2C[C@@H](C[C@H]1Nc1cnn(CC(=O)NCc3ccnnc3)c(=O)c1Cl)C2(C)C :
low

Which class is correct for the following compound? C[C@@H]1[C@H]2C[C@@H](C[C@H]1Nc1cnn(CC(=O)NC(C(N)=O)c3ccccc3)c(=O)c1Br)C2(C)C (some centres unmarked) [Synthetic Example 404]
middle

Values from patent US8440666B2
